# target: 10DM24 deoxyribozyme
# methodNotes: 10DM24-catalyzed ligation of small-molecule NTP substrate to branch-site adenosine of RNA substrate L with cofactor RΔ
# Format: biochemical
# settings: from plot of kobs versus [GTP]; RΔ; read-out: Kd,app
measurementKind: Kd

Request: Item Nc1nc2c(ncn2[C@@H]2O[C@H](COP(=O)(O)OP(=O)(O)OP(=O)(O)O)[C@@H](O)[C@H]2O)c(=O)[nH]1 [GTP, guanosine 5′-triphosphate] has what recorded Kd?
Response: > 1000 µM

* * *

# Test system: 10DM24-C44T mutant deoxyribozyme
# methodNotes: Ligation of NTP substrate with 10DM24 variant in which the terminal P4 nucleotide is changed C→T, cofactor RΔ
# Assay type: biochemical
# settings: standard incubation conditions, 5 h
Decision: ligation yield %, 5 h >= 20% yields met, all other cases yield not met.

Would you please look over these solved cases?
Nc1ncnc2c1ncn2[C@@H]1O[C@H](COP(=O)(O)OP(=O)(O)OP(=O)(O)O)[C@@H](O)[C@H]1O; met
Nc1nc(N)c2ncn(C3OC(COP(=O)(O)OP(=O)(O)OP(=O)(O)O)C(O)C3O)c2n1 (stereo not shown); met

Request: Is it the case that Nc1ncc2ncn([C@H]3C[C@H](O)[C@@H](COP(=O)(O)OP(=O)(O)OP(=O)(O)O)O3)c2n1 has ligation yield %, 5 h reaching or exceeding 20%?
Response: not met

Request: Is it the case that Nc1nc2c(ncn2[C@@H]2O[C@H](COP(=O)(O)OP(=O)(O)OP(=O)(O)O)[C@@H](O)[C@H]2O)c(=O)[nH]1 [GTP, guanosine 5′-triphosphate] has ligation yield %, 5 h reaching or exceeding 20%?
Response: not met

Request: Is it the case that Nc1ncnc2c1ncn2[C@H]1C[C@H](O)[C@@H](COP(=O)(O)OP(=O)(O)OP(=O)(O)O)O1 has ligation yield %, 5 h reaching or exceeding 20%?
Response: not met

Request: Is it the case that Nc1ncnc2c1ncn2[C@H]1CC[C@@H](COP(=O)(O)OP(=O)(O)OP(=O)(O)O)O1 has ligation yield %, 5 h reaching or exceeding 20%?
Response: met

Request: Is it the case that Nc1ncnc2c1ncn2[C@@H]1O[C@H](COP(=O)(O)OP(=O)(O)OP(=O)(O)O)[C@@H](O)[C@@H]1O has ligation yield %, 5 h reaching or exceeding 20%?
Response: not met

* * *

# System: 10DM24 deoxyribozyme
# methodNotes: 10DM24-catalyzed ligation of small-molecule NTP substrate to branch-site adenosine of RNA substrate L with cofactor RΔ
# Type: biochemical
# settings: standard incubation conditions, 5 h
measurementKind: ligation yield %, 5 h (%)
Numbers only, in %.

Study these solved cases before continuing.
O=P(O)(O)OP(=O)(O)OP(=O)(O)OC[C@H]1O[C@@H](n2cnc3c(O)ncnc32)[C@H](O)[C@@H]1O [ITP, inosine triphosphate]; 25
Nc1nc2c(ncn2[C@@H]2O[C@H](COP(=O)(O)OP(=O)(O)OP(=O)(O)O)[C@@H](O)[C@H]2O)c(=O)[nH]1 [GTP, guanosine 5′-triphosphate]; 94

# context switch: different compound, same ligation yield %, 5 h
Request: Item Nc1nc2c(ncn2[C@H]2C[C@H](O)[C@@H](COP(=O)(O)OP(=O)(O)OP(=O)(O)O)O2)c(=O)[nH]1 [dGTP, 2′-deoxyGTP] has what recorded ligation yield %, 5 h?
Response: 88
